Source of measurements: patent US20090076029A1

# Tested on: hMC4-R
# Construct: expressed in transfected cells; host or cells: HEK-293
# PROCEDURE DETAILS: cAMP functional assay in HEK-293 cells expressing MC4-R (agonist, neutral antagonist/Schild)
# Type: cell-based, human
# RUN CONDITIONS: MC4-R; Table 1; read-out: EC50
QUANTITY KIND: EC50 (µM)
Enter your answer as a number in µM; do not include the unit.

Examples from the recorded data:
COMPOUND	MEASUREMENT TARGET	EC50 [µM]
Cc1ccc(CCN2C[C@H](CCCNC(=N)N)N(C(=O)[C@H](N)Cc3ccc4ccccc4c3)C[C@H]2C)cc1 [Example 5]	hMC4-R	0.37
Cc1cc(Cl)ccc1C[C@@H](N)C(=O)N1C[C@@H](C)N(C(=O)Cc2ccc3ccccc3c2)C[C@@H]1CCCNC(=N)N [Example 11]	hMC4-R	0.018

Respond only with EC50 recorded for NCCCC[C@H]1C(=O)N(CCc2ccc3ccccc3c2)CCN1C(=O)[C@@H](Cc1ccc(Cl)cc1Cl)NC(=O)[C@@H]1CC[C@H](c2ccccc2)N1 [Example 19]
0.959

Respond only with EC50 recorded for N=C(N)NCCC[C@H]1CN(CCc2ccc3ccccc3c2)CCN1C(=O)[C@H](N)Cc1ccc(Cl)cc1Cl [Example 18]
0.022

Respond only with EC50 recorded for Cc1cc(Cl)ccc1C[C@@H](N)C(=O)N1C[C@@H](C)N(CCc2ccc3ccccc3c2)C[C@@H]1CCCNC(=N)N [Example 27]
0.214

Respond only with EC50 recorded for Cc1[nH]c2ccccc2c1CCN1C[C@H](CCCNC(=N)N)N(C(=O)[C@H](N)Cc2ccc3ccccc3c2)C[C@H]1C [Example 9]
0.384

* * *

// values below are reported Ki
# MEASUREMENT TARGET: hMC4-R
# Construct: expressed in transfected cells; host or cells: HEK-293
# Format: binding, human
# RUN CONDITIONS: read-out: Ki (nM) (AgRP) MC4-R
Enter your answer as a number in nM; do not include the unit.

Examples from the recorded data:
COMPOUND	Ki / nM
CC(C)C[C@H]1CN(C(=O)[C@H](N)Cc2ccc(Cl)cc2Cl)[C@@H](CCCNC(=N)N)CN1CCc1ccc2ccccc2c1	39
N=C(N)NCCC[C@H]1C(=O)N(CCc2c[nH]c3ccccc23)CCN1C(=O)[C@H](N)Cc1ccc(Cl)cc1Cl	38

Please look at the following compound next.
Respond only with Ki recorded for C[C@@H]1CN(C(=O)[C@H](N)Cc2ccc3ccccc3c2)[C@@H](CCCNC(=N)N)CN1C(=O)Cc1c[nH]c2ccccc12
83

* * *

# MEASUREMENT TARGET: hMC4-R
# Construct: expressed in transfected cells; host or cells: HEK-293
# PROCEDURE DETAILS: Competitive inhibition assay using [I125]-NDP-α-MSH, hMC4-R membranes
# Format: binding, human
# RUN CONDITIONS: read-out: Ki (nM) (NDP-α-MSH) MC4-R
QUANTITY KIND: Ki (nM)
Enter your answer as a number in nM; do not include the unit.

Respond only with Ki recorded for NH2—(CH2)6—C(═O)-Ser(Bzl)-D-Phe(4-Cl)-Arg-Trp-Asp-Phe-NH2 [Example 15]
5

* * *

# MEASUREMENT TARGET: MC1-R
# PROCEDURE DETAILS: Competitive inhibition assay using [I125]-NDP-α-MSH, MC1-R membranes
# Assay type: binding, mouse
QUANTITY KIND: Ki (nM)
Enter your answer as a number in nM; do not include the unit.

> print(dat)
                              sample.smiles  value.observed
1  NCCCC[C@H]1C(=O)N(CCc2ccc3ccccc3c2)CCN1C(=O)[C@@H](Cc1ccc(Cl)cc1Cl)NC(=O)/C=C/c1ccccc1             502

Please look at the following compound next.
Please indicate recorded Ki of N=C(N)NCCC[C@H]1CN(C(=O)Cc2ccc3ccccc3c2)[C@H](Cc2ccccc2)CN1C[C@H](N)Cc1ccc2ccccc2c1 measured with MC1-R.
2770
